# ASSAYED_SYSTEM: CYP3A4 (Homo sapiens)
# Sequence (P08684 whole entry): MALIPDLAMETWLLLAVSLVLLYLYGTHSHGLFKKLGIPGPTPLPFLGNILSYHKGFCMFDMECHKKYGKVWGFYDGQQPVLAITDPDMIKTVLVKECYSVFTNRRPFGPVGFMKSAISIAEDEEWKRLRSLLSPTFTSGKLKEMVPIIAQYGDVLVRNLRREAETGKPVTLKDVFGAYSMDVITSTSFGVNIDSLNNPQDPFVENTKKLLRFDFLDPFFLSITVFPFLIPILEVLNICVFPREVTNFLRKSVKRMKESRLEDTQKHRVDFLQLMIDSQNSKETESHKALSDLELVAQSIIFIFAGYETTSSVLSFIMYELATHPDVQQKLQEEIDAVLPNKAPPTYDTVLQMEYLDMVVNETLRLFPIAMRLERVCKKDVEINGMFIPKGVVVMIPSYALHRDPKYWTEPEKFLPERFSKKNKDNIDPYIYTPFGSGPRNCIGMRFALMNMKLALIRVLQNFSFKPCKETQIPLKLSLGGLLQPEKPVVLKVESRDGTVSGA
# ASSAY_TEXT: Inhibition of human recombinant CYP3A4 using BFC as substrate at 3 uM by fluorimetric assay
# Assay type: ADME
# CONDITION_CONTEXT: recombinant CYP3A4, probe BFC
TEST_READOUT: inhibition at 3 µM

INSERT INTO measurements (chemical_smiles, test_result) VALUES
  ('O=C(c1cc(Cl)ccc1-c1ncccn1)N1CC2(CC2)C[C@H]1CNc1ccc(C(F)(F)F)cn1', '< 22%');

Asked: inhibition at 3 µM lookup needed for `O=C(c1nc(C(F)(F)F)ccc1-c1ncccn1)N1CC2(CC2)C[C@H]1CNc1ccc(C(F)(F)F)cn1` , thanks.
Given back: < 39%

Asked: inhibition at 3 µM lookup needed for `CS(=O)(=O)c1ccc(-c2ccccc2)c(C(=O)N2CC3(CC3)C[C@H]2CNc2ccc(C(F)(F)F)cn2)c1` , thanks.
Given back: < 41%

Asked: inhibition at 3 µM lookup needed for `N#Cc1ccc(-c2ncccn2)c(C(=O)N2CC3(CC3)C[C@H]2CNc2ccc(C(F)(F)F)cn2)c1` , thanks.
Given back: < 32%

---

# ASSAYED_SYSTEM: UniProtKB P08684
# ASSAY_TEXT: Time dependent inhibition of human recombinant CYP3A4 using BFC as substrate incubated for 30 mins prior to substrate addition
# Assay type: ADME
# CONDITION_CONTEXT: recombinant enzyme, 0.5 h
TEST_READOUT: inhibition (INH)

INSERT INTO assay_data (chemical_smiles, test_result) VALUES
  ('Cc1cc(C)nc(NC[C@@H]2CC3(CC3)CN2C(=O)c2nc(C)sc2-c2ccccc2)n1', 'Active'),
  ('Cc1nc(C(=O)N2CC3(CC3)C[C@H]2CNc2ccc(C(F)(F)F)cn2)c(-c2ccccc2)s1', 'Active'),
  ('Cc1ccc(-c2ncccn2)c(C(=O)N2CC3(CC3)C[C@H]2CNc2ccc(C(F)(F)F)cn2)n1', 'Active');

---

Below: a set of entries, each annotated with reported inhibition at 3 µM.
# ASSAYED_SYSTEM: UniProt:P08684
# ASSAY_TEXT: Inhibition of human recombinant CYP3A4 using DBF as substrate at 3 uM by fluorimetric assay
# Format: ADME
# CONDITION_CONTEXT: recombinant CYP3A4, probe DBF

INSERT INTO assay_data (chemical_smiles, test_result) VALUES
  ('Cc1ccc(-c2ncccn2)c(C(=O)N2CC3(CC3)C[C@H]2CNc2ccc(C(F)(F)F)cn2)n1', '< 28%'),
  ('O=C(c1nc(OC(F)(F)F)ccc1-c1ncccn1)N1CC2(CC2)C[C@H]1CNc1ccc(C(F)(F)F)cn1', '< 58%'),
  ('N#Cc1ccc(-c2ncccn2)c(C(=O)N2CC3(CC3)C[C@H]2CNc2ccc(C(F)(F)F)cn2)c1', '< 32%');

Asked: inhibition at 3 µM lookup needed for `Cc1ccc(-c2nccs2)c(C(=O)N2CC3(CC3)C[C@H]2CNc2ccc(C(F)(F)F)cn2)n1` , thanks.
Given back: < 89%

Asked: inhibition at 3 µM lookup needed for `CS(=O)(=O)c1ccc(-c2ccccc2)c(C(=O)N2CC3(CC3)C[C@H]2CNc2ccc(C(F)(F)F)cn2)c1` , thanks.
Given back: < 41%

Asked: inhibition at 3 µM lookup needed for `Cc1cnn(-c2ccc(C)nc2C(=O)N2CC3(CC3)C[C@H]2CNc2ccc(C(F)(F)F)cn2)c1` , thanks.
Given back: < 85%

Asked: inhibition at 3 µM lookup needed for `O=C(c1cc(Cl)ccc1-c1ncccn1)N1CC2(CC2)C[C@H]1CNc1ccc(C(F)(F)F)cn1` , thanks.
Given back: < 22%

Asked: inhibition at 3 µM lookup needed for `O=C(c1nc(C(F)(F)F)ccc1-c1ncccn1)N1CC2(CC2)C[C@H]1CNc1ccc(C(F)(F)F)cn1` , thanks.
Given back: < 39%
